Listed compounds paired with reported hepatocyte CLint at 1 µM
experiment: In vitro rat hepatocytes clearance assay; conditions: male, rat, cryopreserved rat hepatocytes (suspension), rat hepatocytes Clint (µL/min/10^6cells), 1 µM-range incubation up to 100 min
Structures can show the parent of a compound that is named as a salt.

>  <compound>
C=CC(=O)Nc1cc(Nc2nccc(Nc3cc(Cl)c(F)cc3C(C)(C)O)n2)c(OC)cc1N(C)CCN(C)C

>  <hepatocyte CLint at 1 µM>
> 300 µL/min/1e6 cells

$$$$
>  <compound>
C=CC(=O)Nc1cc(Nc2nccc(Nc3cc(Cl)c(F)cc3C(C)(C)O)n2)c(OC)cc1N1CC[C@@H](NC)C1 [Compound 80, TFA salt]

>  <hepatocyte CLint at 1 µM>
15.5 µL/min/1e6 cells

$$$$
>  <compound>
C=CC(=O)Nc1cc(Nc2ncnc(Nc3cc(Cl)c(F)cc3C(C)(O)CC)n2)c(OC)cc1N1CC[C@@H](N(C)C)C1 (single isomer, unassigned)

>  <hepatocyte CLint at 1 µM>
10.7 µL/min/1e6 cells

$$$$
>  <compound>
C=CC(=O)Nc1cc(Nc2nccc(Nc3cc(Cl)c(F)cc3C(C)(O)CC)n2)c(OC)cc1N1CC[C@@H](N(C)C)C1 (single isomer, unassigned)

>  <hepatocyte CLint at 1 µM>
13.9 µL/min/1e6 cells

$$$$

Just for reference, patent US20230293535A1 is where these values come from.
